These entries and their values trace back to the Human Domainome abundance scans (Beltran et al. 2025).

B1: Kinesin-like protein KIF16B, residues 1213 to 1273; numbered along this chain, Q96L93 (parent)
chain: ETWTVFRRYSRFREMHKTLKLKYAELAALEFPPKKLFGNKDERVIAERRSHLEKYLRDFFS

variants of: B1; assay: abundance fitness (aPCA) (normalised: wild type 0, dead -1); higher = more abundant; growth selection in yeast, the domain comes from the species named; conditions: Homo sapiens
# if value of abundance fitness reaches -0.2, tag yes (1); if it stays below, tag no (0)

Use these answered entries as a reference point.
residues	cat
ETWTVRRRYSRFREMHKTLKLKYAELAALEFPPKKLFGNKDERVIAERRSHLEKYLRDFFS [F6R]	no (0)
ETWTVFRRYSRFREMHKTLKLKYAELAALEFPPKKLFGNKDERVIQERRSHLEKYLRDFFS [A46Q]	yes (1)
ETWTVFRRYSRFREMHKTLKLKYAELAALEFPPKKLFGNQDERVIAERRSHLEKYLRDFFS [K40Q]	yes (1)
ETWTVFRRYSRFREMHKTLKLKYAELAALEFPPKKLFPNKDERVIAERRSHLEKYLRDFFS [G38P]	no (0)
ETWTVFRRYSRFREMHKTLKLKYAELAALEFPPKKLFGNKDERVIAERRSHGEKYLRDFFS [L52G]	yes (1)

For this variant, is measured abundance fitness -0.2 or higher? ETWTVFRRYSRFREMHKTLKLKYAELAALIFPPKKLFGNKDERVIAERRSHLEKYLRDFFS [E30I]
yes (1)
